# test target: BHRF1 (recombinant; BHRF1ΔC31) (Epstein-barr virus strain ag876, UniProt P0C6Z1)
# Construct: C-terminally truncated (last 31 residues removed, ΔC31), His-tagged, E. coli BL21(DE3) pLysS; the ABT-737 sentence says only 'recombinant BHRF1'
# Sequence (P0C6Z1 1-160, stated change not applied): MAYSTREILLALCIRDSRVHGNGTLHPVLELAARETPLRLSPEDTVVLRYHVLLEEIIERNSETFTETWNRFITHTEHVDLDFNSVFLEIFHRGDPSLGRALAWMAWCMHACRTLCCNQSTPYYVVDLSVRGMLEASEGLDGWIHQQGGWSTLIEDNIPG
# protocol notes: biosensor assay
metric: IC50

Consider CN(C)CC[C@H](CSc1ccccc1)Nc1ccc(S(=O)(=O)NC(=O)c2ccc(N3CCN(Cc4ccccc4-c4ccc(Cl)cc4)CC3)cc2)cc1[N+](=O)[O-] . Its measured IC50 is > 20 µM
